Molecular target: X-box-binding protein 1 (Homo sapiens) (UniProt P17861)
Test: XBP1 reporter suppression in cells – counter-screen, dose response (AID 504313);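 further: CHO cells carrying an XBP1 reporter stimulated with tunicamycin; potency is for inhibition of the tunicamycin-induced reporter signal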
Conditions: XBP1 reporter cell assay, percent of control
Active and inactive are the calls of the source. How the calls were made is not given here.
Labels: active, inactive

Molecule: O=C(CCl)Nc1cn(-c2ccccc2)nc1-c1ccc(F)cc1
Class name: inactive

Molecule: CCCNC(=O)c1nnsc1S(=O)c1ccc(Cl)cc1 (stereo not given)
Class name: inactive

Molecule: O=C(N/N=C/c1cccc(F)c1)c1c(O)c2ccccc2[nH]c1=O
Class name: inactive

Molecule: CCCCCCCC(=O)N/N=C/c1ccc(Br)cc1
Class name: active

Molecule: O=[N+]([O-])c1c(NCCCO)cc(Sc2nc3ccccc3s2)c2nonc12
Class name: inactive

----------
Target: UniProtKB P17861
Assay: XBP1 reporter suppression in cells – counter-screen, dose response (AID 504313)
Settings: XBP1 reporter cell assay, percent of control
The source made the active and inactive calls. The rule behind the calls is not given here.
Labels: active, inactive

Molecule: CCc1ccc(-c2nc(CN3CCC(C(=O)NCCN(CC)c4ccccc4)CC3)c(C)o2)cc1
Class name: inactive
--
Molecule: C[C@H](NC(=O)c1[nH]cnc1C(=O)Nc1ccc(Cl)cc1)C(=O)OC(C)(C)C
Class name: inactive
--
Molecule: CCc1ccc(-c2nc(CSCC(=O)NCc3ccco3)c(C)o2)cc1
Class name: active
--
Molecule: CC(C)(C)OC(=O)N[C@@H](Cc1ccccc1)c1nnc(S(=O)(=O)Cc2ccccc2)o1
Class name: inactive
--
Molecule: O=C(Nc1ccc(F)cc1)Nc1ccc(N2CCCC2)c(S(=O)(=O)Nc2ccccc2Cl)c1
Class name: inactive
--
Molecule: COc1ccc(C(=O)Nc2nnc(-c3ccco3)s2)cc1
Class name: inactive
--
Molecule: O=C(Nc1ccc(C(O)(C(F)(F)F)C(F)(F)F)cc1)c1ccc(Cl)c([N+](=O)[O-])c1
Class name: inactive
--
Molecule: CCC(C)NC(=O)c1c(N)n(CC2CCCO2)c2nc3ccccc3nc12 (stereo not given)
Class name: inactive
--
Molecule: Cc1ccc(NC(=O)c2cc3ccccc3oc2=O)cc1S(=O)(=O)N(C)C
Class name: active
--
Molecule: CC(C)(C)C(=O)c1no[n+]([O-])c1/C(=N/O)C(C)(C)C
Class name: inactive
--
Molecule: CCCCn1c(N2CCC(Cc3ccccc3)CC2)nc2c1c(=O)[nH]c(=O)n2C
Class name: inactive
--
Molecule: Clc1ccc2[nH]c(-c3ccccc3)cc2c1
Class name: inactive
--
Molecule: COc1ccc(C2=NN(C(=O)c3ccco3)C(c3cc4ccccc4nc3Cl)C2)cc1 (stereo not given)
Class name: inactive
--
Molecule: CCOc1cc(/C=N\NC(=O)Cc2ccccc2)ccc1OCC(=O)Nc1ccc(C)c(C)c1
Class name: inactive
--
Molecule: C/C(=C\c1ccco1)C1C(C#N)=C(N)Oc2n[nH]c(-c3ccc(C)cc3)c21 (stereo not given)
Class name: inactive
--
Molecule: Cc1ccc(NC(=O)c2ccc(Nc3c([N+](=O)[O-])cc([N+](=O)[O-])cc3[N+](=O)[O-])cc2)cc1
Class name: inactive
--
Molecule: O=C(OCn1ncc(Cl)c(Cl)c1=O)c1cccc(C(F)(F)F)c1
Class name: inactive
--
Molecule: C[C@H]1C[C@@H](C)C(=O)[C@@H]([C@H](O)CC2CC(=O)NC(=O)C2)C1
Class name: active
--
Molecule: CCOc1ccc(/C=N/NC(=O)c2cc(-c3ccco3)nc3ccccc23)cc1
Class name: inactive
--
Molecule: O=C(COc1ccc(Cl)cc1Cl)NCCC1=CCCCC1
Class name: active
--
Molecule: CCC(C)c1ccc(O)c(NC(=O)c2cncc(Br)c2)c1 (stereo not given)
Class name: inactive
--
Molecule: Oc1ccc(/C=N/Nc2nc(-c3ccc(Cl)cc3)cc(C(F)(F)F)n2)cc1
Class name: inactive
--
Molecule: Cc1ccccc1CS(=O)(=O)c1nnc([C@H](Cc2ccccc2)NC(=O)OC(C)(C)C)o1
Class name: inactive
--
Molecule: CC1=NNC(=O)/C1=C\c1cn(-c2ccccc2)nc1-c1ccc(F)cc1
Class name: inactive
--
Molecule: CS(=O)(=O)c1ncc(Cl)c(C(=O)Nc2ccc(N3CCOCC3)cc2)n1
Class name: inactive
--
Molecule: CN1CCc2c(sc(NC(=O)c3cc4cc([N+](=O)[O-])ccc4s3)c2C(N)=O)C1
Class name: inactive
--
Molecule: CCOc1ccc(-n2c(SCC(=O)Nc3ccc(Br)cc3)nc3n[nH]c(C)c3c2=N)cc1
Class name: inactive
--
Molecule: CS(=O)(=O)c1ccc(S(=O)CC(=O)OCc2ccccc2)c([N+](=O)[O-])c1 (stereo not given)
Class name: inactive
--
Molecule: CC1CCC(C(C)C)C(OC(=O)COC(=O)c2cc(O)ccc2N)C1 (stereo not given)
Class name: inactive
--
Molecule: CCOc1ccc(C(=O)C(CCC(CN(C)C)C(=O)c2ccc(OCC)cc2)CN(C)C)cc1 (stereo not given)
Class name: inactive

----------
Target: UniProt P17861
Test: XBP1 reporter suppression in cells – counter-screen, dose response (AID 504313);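 further: CHO cells carrying an XBP1 reporter stimulated with tunicamycin; potency is for inhibition of the tunicamycin-induced reporter signal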
Conditions: XBP1 reporter cell assay, percent of control
Calls of active or inactive are those of the source. The rule behind the calls is not given here.

Molecule: Cc1ccc(-c2nc(N)sc2-c2ccc(C)cc2)cc1
IC50: > 10 µM (inactive)
//
Molecule: C[C@H](NC(=O)c1nc[nH]c1C(=O)N[C@@H](Cc1ccccc1)C(=O)OC(C)(C)C)C(=O)OC(C)(C)C
IC50: inactive
//
Molecule: Cc1cc(C(=O)COC(=O)c2ccccc2O)c(C)n1Cc1cccs1
IC50: < 0.16 µM (inactive)
//
Molecule: O=C(Nc1ccccc1Cl)/C(Cl)=C(\Cl)S(=O)c1ccccc1 (stereo not given)
IC50: 2.4 µM
//
Molecule: Cc1ccc2sc(N(CCCN(C)C)C(=O)c3nc4ccccc4s3)nc2c1C
IC50: inactive

----------
Target: X-box-binding protein 1 (Homo sapiens)
Assay: XBP1 reporter suppression in cells – counter-screen, dose response (AID 504313);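 further: CHO cells carrying an XBP1 reporter stimulated with tunicamycin; potency is for inhibition of the tunicamycin-induced reporter signal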
Details: XBP1 reporter cell assay, percent of control
Activity calls are given as the source filed them. No rule for the calls is given here.
Labels: active, inactive

Compound: O=C(Nc1ccc(-c2nc3ccccc3o2)cc1)c1ccc(N2CCOCC2)c([N+](=O)[O-])c1
Class name: inactive

Compound: O=C(NCCNC(=O)c1cc(OCC(F)(F)F)ccc1OCC(F)(F)F)Nc1cccc(C(F)(F)F)c1
Class name: inactive

Compound: CC(C)CCN(C(=O)Cc1ccc(Cl)c(Cl)c1)c1c(N)n(Cc2ccccc2)c(=O)[nH]c1=O
Class name: inactive

Compound: O=C(NCc1nc(-c2ccc(C(F)(F)F)cc2)no1)Nc1ccc(OC(F)(F)F)cc1
Class name: active

Compound: CCOC(=O)c1c(C(C)(C)C)oc2ccc(O)cc12
Class name: inactive

Compound: O=C(Nc1cccc(-c2nc3ncccc3o2)c1)c1sc2ccccc2c1Cl
Class name: inactive

Compound: CCC(C)[C@@H](NC(=O)OC(C)(C)C)c1nnc(S(=O)(=O)Cc2cccc(C)c2)o1 (stereo partly specified)
Class name: active

Compound: O=C(OCn1ncc(Br)c(Br)c1=O)c1ccccc1Cl
Class name: active

Compound: O=C(NC(c1ccccc1)c1cc(Cl)c2cccnc2c1O)c1cccnc1 (stereo unspecified)
Class name: inactive

Compound: CCCCn1c(NS(=O)(=O)c2ccc(C)cc2)c(S(=O)(=O)c2ccccc2)c2nc3ccccc3nc21
Class name: inactive

Compound: Cc1nn(-c2ccccc2)c(Cl)c1CN(C(=O)CCl)c1ccc(Cl)cc1
Class name: active

----------
Target: X-box-binding protein 1 (Homo sapiens) (UniProt P17861)
Assay: XBP1 reporter suppression in cells – counter-screen, dose response (AID 504313);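 further: CHO cells carrying an XBP1 reporter stimulated with tunicamycin; potency is for inhibition of the tunicamycin-induced reporter signal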
Settings: XBP1 reporter cell assay, percent of control
Activity calls are given as the source filed them. How the calls were made is not given here.
Labels: active, inactive

Molecule: CC(=O)NCc1ccc(C(=O)CCl)s1
Class name: inactive
//
Molecule: Nc1cccc(Nc2nc(OC(C(F)(F)F)C(F)(F)F)nc(OC(C(F)(F)F)C(F)(F)F)n2)c1
Class name: active
//
Molecule: CCOc1cc(/C=C\[N+](=O)[O-])ccc1OCC(=O)Nc1ccccc1C
Class name: active
//
Molecule: CC1CN(S(=O)(=O)c2ccc(C(=O)Nc3nc(-c4cc5ccccc5o4)cs3)cc2)CC(C)O1 (stereo not given)
Class name: inactive
//
Molecule: Cc1cc(/C=N/n2cnnc2)c(C)n1-c1ccc(OCc2ccc(Cl)cc2Cl)cc1
Class name: active
//
Molecule: Cc1ccc(S(=O)(=O)/N=C2/C=C(Sc3ncn[nH]3)C(=O)c3ccccc32)cc1
Class name: inactive
//
Molecule: O=Nc1ccc(O)c2ncccc12
Class name: active
//
Molecule: CS(=O)(=O)c1nc(-c2ccc(F)cc2)cc(C(F)(F)F)n1
Class name: inactive
//
Molecule: Cc1cc(Cl)ccc1OCc1n[nH]c(=S)n1C1CCCCC1
Class name: inactive
//
Molecule: Cc1ccc(/C=C2\SC(=S)N(CCCC(=O)Nc3ccc(O)cc3)C2=O)cc1
Class name: active
//
Molecule: Nc1c(S(=O)(=O)c2cccc(Cl)c2)c2nc3ccccc3nc2n1/N=C/c1ccc(O)c(O)c1
Class name: inactive
//
Molecule: O=C(Nc1ccccc1Cl)c1ccccc1Oc1ccc(C(F)(F)F)cc1[N+](=O)[O-]
Class name: inactive
//
Molecule: O=C(NC(Nc1nc2ccc([N+](=O)[O-])cc2s1)(C(F)(F)F)C(F)(F)F)c1ccccc1Cl
Class name: active
//
Molecule: O=C(COCC(=O)Nc1cccc(C(F)(F)F)c1)Nc1cccc(C(F)(F)F)c1
Class name: inactive
//
Molecule: O=c1cc(-c2c(F)c(F)c(F)c(F)c2F)oc2c(F)c(F)c(F)c(F)c12
Class name: active
